# assayed_system: HLA-B*15:09
# assay_notes: IEDB peptide-MHC binding, purified MHC/competitive/fluorescence; filed as Kd, often an IC50 or EC50 that approximates it; bounds were set here for any values at or beyond the usual limits of such assays
# stated_conditions: source organism: Human immunodeficiency virus 1
measured_endpoint: Kd

EVKSLFNTV    ≥ 20 µM

# Kd lookup, item "GTEEIRSLF"
≥ 20 µM

====

# assayed_system: HLA-B*35:01
# assay_notes: IEDB peptide-MHC binding, purified MHC/competitive/fluorescence; filed as Kd, often an IC50 or EC50 that approximates it; bounds were set here for any values at or beyond the usual limits of such assays
# stated_conditions: source organism: Klebsiella pneumoniae subsp. pneumoniae NTUH-K2044
measured_endpoint: Kd (nM)
Answers are plain numbers, in nM.

Using the record for "KVLSHGWAY" , report its Kd.
26.7

====

For each of the sequences below, state its pKd.
# assayed_system: HLA-B*08:01
# assay_notes: IEDB peptide-MHC binding, purified MHC/direct/fluorescence; filed as Kd, often an IC50 or EC50 that approximates it; bounds were set here for any values at or beyond the usual limits of such assays
# stated_conditions: source organism: Vibrio cholerae
pKd: −log10 of the molar value.

Each sequence below has a reported value. Please supply its pKd.
1. IPISGRITA
2. KEDPGDHIF

≤ 4.70
≤ 4.70

====

# assayed_system: HLA-C*15:02
# assay_notes: IEDB peptide-MHC binding, purified MHC/direct/fluorescence; filed as Kd, often an IC50 or EC50 that approximates it; bounds were set here for any values at or beyond the usual limits of such assays
# stated_conditions: source organism: Campylobacter jejuni subsp. jejuni NCTC 11168 = ATCC 700819
measured_endpoint: Kd (nM)
One number for each entry, in nM.

I'd like to know its Kd. The sequence in question is "KSNEKNMDF"
150

====

# assayed_system: HLA-A*01:01
# assay_notes: IEDB peptide-MHC binding, purified MHC/competitive/fluorescence; bounds were set here for any values at or beyond the usual limits of such assays
# stated_conditions: source organism: Vaccinia virus WR
measured_endpoint: IC50 (µM)
Give bare numbers, in µM.

Fill blank: measured IC50 of the sequence "FTEQAFYTR" is ____.
26.3

====

# assayed_system: HLA-B*45:01
# assay_notes: IEDB peptide-MHC binding, purified MHC/competitive/radioactivity; filed as Kd, often an IC50 or EC50 that approximates it; bounds were set here for any values at or beyond the usual limits of such assays
# stated_conditions: source organism: Mammarenavirus lassaense
measured_endpoint: Kd
Mention the unit after the number when you answer.

Reported Kd, sequence "HDLMKQKCL" : ____
19.1 µM

====

# assayed_system: HLA-A*11:01
# assay_notes: IEDB peptide-MHC binding, purified MHC/competitive/fluorescence; bounds were set here for any values at or beyond the usual limits of such assays
# stated_conditions: source organism: Vaccinia virus
measured_endpoint: IC50 (µM)
Numbers only, in µM.

Item "LEYKTLCDM" has what recorded IC50?
44.8

====

# assayed_system: HLA-A*02:19
# assay_notes: IEDB peptide-MHC binding, purified MHC/competitive/fluorescence; filed as Kd, often an IC50 or EC50 that approximates it; bounds were set here for any values at or beyond the usual limits of such assays
# stated_conditions: source organism: Canarypox virus
measured_endpoint: pKd
Numbers only, as −log10 of the molar value.

What pKd value was documented for this sequence, "YMMDGNECP" ?
6.70

All values here come from the Immune Epitope Database (IEDB).
